Experiment: Tissue concentration of aprepitant by HPLC after oral or inhaled administration to rabbits
Format: in vivo, New Zealand albino rabbits
Conditions: New Zealand White (albino), rabbit, lung, right superior lobe, inhaled, 0.1 mg/kg/day, Lung concentration of aprepitant LSPD, Average ± SD of cases, Group 6, inhalation (aerosol, olive oil) 0.1 mg/kg per day, seven days
Text: Herein, New Zealand albino rabbits (New Zealand White Rabbits) with an initial average weight of approximately 3 kg were used. The rabbits were fed ad libitum and were monitored daily to check that signs of toxicity had not appeared. […] The average is the arithmetic average calculated for each row or column of each table. The SD is the standard deviation, calculated for each row or column of each table.
Measured Metric: concentration at 7 days (ng/g)
Hi! Could you send only the number? It should be in ng/g, unit omitted.

Field request: concentration at 7 days | item: C[C@@H](OC1OCCN(Cc2nc(=O)[nH][nH]2)C1c1ccc(F)cc1)c1cc(C(F)(F)F)cc(C(F)(F)F)c1 (stereo in doubt) [Aprepitant]
2800

====

Assay: Tissue concentration of aprepitant by HPLC after oral or inhaled administration to rabbits
Type: in vivo, New Zealand albino rabbits
Details: New Zealand White (albino), rabbit, lung, right middle lobe, inhaled, 0.1 mg/kg/day, Lung concentration of aprepitant LMPD, Average ± SD of cases, Group 6, inhalation (aerosol, olive oil) 0.1 mg/kg per day, seven days
Measured Metric: concentration at 7 days (ng/g)
State just the number; it will be interpreted in ng/g.

Entry under review: C[C@@H](OC1OCCN(Cc2nc(=O)[nH][nH]2)C1c1ccc(F)cc1)c1cc(C(F)(F)F)cc(C(F)(F)F)c1 (stereo in doubt) [Aprepitant] . Reported concentration at 7 days?
2900

====

Test: Tissue concentration of aprepitant by HPLC after oral or inhaled administration to rabbits
Assay type: in vivo, New Zealand albino rabbits
Details: New Zealand White, rabbit, lung, right middle lobe, po, 10 mg/kg/day, Lung concentration of aprepitant LMPD (right middle lobe), Group 1, oral 10 mg/kg per day, seven days; individual cases
Measured Metric: concentration at 7 days (ng/g)
The answer is to be given in ng/g; state only the numeric part.

Please give the measured concentration at 7 days for this compound: C[C@@H](OC1OCCN(Cc2nc(=O)[nH][nH]2)C1c1ccc(F)cc1)c1cc(C(F)(F)F)cc(C(F)(F)F)c1 (stereo in doubt) [Aprepitant]
1100

====

Test: Tissue concentration of aprepitant by HPLC after oral or inhaled administration to rabbits
Type: in vivo, New Zealand albino rabbits
Conditions: New Zealand White (albino), rabbit, lung, right middle lobe, inhaled, 0.2 mg/kg/day, Lung concentration of aprepitant LMPD, Average ± SD of cases, Group 7, inhalation (aerosol, olive oil) 0.2 mg/kg per day, seven days
Measured Metric: concentration at 7 days (ng/g)
Give the value in ng/g but do not write ng/g after it.

Which concentration at 7 days value is on record for C[C@@H](OC1OCCN(Cc2nc(=O)[nH][nH]2)C1c1ccc(F)cc1)c1cc(C(F)(F)F)cc(C(F)(F)F)c1 (stereo in doubt) [Aprepitant] ?
6030

====

Experiment: in vivo
Type: in vivo, New Zealand albino rabbits
Conditions: New Zealand White (albino), rabbit, in vivo, 0.1 mg/kg/day, Lung concentration of aprepitant, Average ± SD of the five lobes per case
Measured Metric: concentration at 7 days

Return reported concentration at 7 days; argument: C[C@@H](OC1OCCN(Cc2nc(=O)[nH][nH]2)C1c1ccc(F)cc1)c1cc(C(F)(F)F)cc(C(F)(F)F)c1 (stereo in doubt) [Aprepitant]
2800 ng/g

====

Assay: Tissue concentration of aprepitant by HPLC after oral or inhaled administration to rabbits
Format: in vivo, New Zealand albino rabbits
Conditions: New Zealand White (albino), rabbit, lung, left inferior lobe, inhaled, 0.05 mg/kg/day, Lung concentration of aprepitant LIPI, Average ± SD of cases, Group 5, inhalation (aerosol, olive oil) 0.05 mg/kg per day, seven days
Measured Metric: concentration at 7 days (ng/g)
Write the number in ng/g without appending the unit.

Give the measured concentration at 7 days of C[C@@H](OC1OCCN(Cc2nc(=O)[nH][nH]2)C1c1ccc(F)cc1)c1cc(C(F)(F)F)cc(C(F)(F)F)c1 (stereo in doubt) [Aprepitant] .
1400

====

Test: Tissue concentration of aprepitant by HPLC after oral or inhaled administration to rabbits
Format: in vivo, New Zealand albino rabbits
Conditions: New Zealand White, rabbit, lung, right superior lobe, inhaled, 0.4 mg/kg/day, Lung concentration of aprepitant LSPD (right superior lobe), Group 8, inhalation (aerosol, olive oil) 0.4 mg/kg per day, seven days; individual cases
Measured Metric: concentration at 7 days (ng/g)
Report the figure in ng/g without appending any unit label.

Field request: concentration at 7 days | item: C[C@@H](OC1OCCN(Cc2nc(=O)[nH][nH]2)C1c1ccc(F)cc1)c1cc(C(F)(F)F)cc(C(F)(F)F)c1 (stereo in doubt) [Aprepitant]
10100

====

Experiment: Tissue concentration of aprepitant by HPLC after oral or inhaled administration to rabbits
Format: in vivo, New Zealand albino rabbits
Details: New Zealand White (albino), rabbit, lung, left superior lobe, po, 100 mg/kg/day, Lung concentration of aprepitant LSPI (left superior lobe), Group 4, oral 100 mg/kg per day, seven days; individual cases
Measured Metric: concentration at 7 days (ng/g)
Report as a plain number; the unit ng/g is understood.

So what does the record say about concentration at 7 days for C[C@@H](OC1OCCN(Cc2nc(=O)[nH][nH]2)C1c1ccc(F)cc1)c1cc(C(F)(F)F)cc(C(F)(F)F)c1 (stereo in doubt) [Aprepitant] ?
4300

====

Assay: Tissue concentration of aprepitant by HPLC after oral or inhaled administration to rabbits
Assay type: in vivo, New Zealand albino rabbits
Conditions: New Zealand White (albino), rabbit, lung, right inferior lobe, inhaled, 0.1 mg/kg/day, Lung concentration of aprepitant LIPD (right inferior lobe), Group 6, inhalation (aerosol, olive oil) 0.1 mg/kg per day, seven days; individual cases
Measured Metric: concentration at 7 days (ng/g)
State just the number; it will be interpreted in ng/g.

Which value of concentration at 7 days has been reported for C[C@@H](OC1OCCN(Cc2nc(=O)[nH][nH]2)C1c1ccc(F)cc1)c1cc(C(F)(F)F)cc(C(F)(F)F)c1 (stereo in doubt) [Aprepitant] in the records?
2800

====

Assay: Tissue concentration of aprepitant by HPLC after oral or inhaled administration to rabbits
Assay type: in vivo, New Zealand albino rabbits
Conditions: New Zealand White, rabbit, lung, left superior lobe, po, 80 mg/kg/day, Lung concentration of aprepitant LSPI (left superior lobe), Group 3, oral 80 mg/kg per day, seven days; individual cases
Measured Metric: concentration at 7 days
Please format your answer as a value with the unit trailing.

What value of measured concentration at 7 days is listed for C[C@@H](OC1OCCN(Cc2nc(=O)[nH][nH]2)C1c1ccc(F)cc1)c1cc(C(F)(F)F)cc(C(F)(F)F)c1 (stereo in doubt) [Aprepitant] ?
3900 ng/g

====

Test: Tissue concentration of aprepitant by HPLC after oral or inhaled administration to rabbits
Format: in vivo, New Zealand albino rabbits
Conditions: New Zealand White, rabbit, lung, right superior lobe, po, 40 mg/kg/day, Lung concentration of aprepitant LSPD (right superior lobe), Group 2, oral 40 mg/kg per day, seven days; individual cases
Measured Metric: concentration at 7 days (ng/g)
Express your answer in ng/g, writing the number without its unit.

Need concentration at 7 days of C[C@@H](OC1OCCN(Cc2nc(=O)[nH][nH]2)C1c1ccc(F)cc1)c1cc(C(F)(F)F)cc(C(F)(F)F)c1 (stereo in doubt) [Aprepitant] , thanks.
3200

====

Test: Tissue concentration of aprepitant by HPLC after oral or inhaled administration to rabbits
Format: in vivo, New Zealand albino rabbits
Conditions: New Zealand White, rabbit, lung, right middle lobe, po, 100 mg/kg/day, Lung concentration of aprepitant LMPD (right middle lobe), Group 4, oral 100 mg/kg per day, seven days; individual cases
Measured Metric: concentration at 7 days (ng/g)
Just the number please, in ng/g, no unit attached.

Record request: concentration at 7 days value, item C[C@@H](OC1OCCN(Cc2nc(=O)[nH][nH]2)C1c1ccc(F)cc1)c1cc(C(F)(F)F)cc(C(F)(F)F)c1 (stereo in doubt) [Aprepitant]
5800

====

Assay: Tissue concentration of aprepitant by HPLC after oral or inhaled administration to rabbits
Assay type: in vivo, New Zealand albino rabbits
Details: New Zealand White (albino), rabbit, lung, left inferior lobe, inhaled, 0.1 mg/kg/day, Lung concentration of aprepitant LIPI, Average ± SD of cases, Group 6, inhalation (aerosol, olive oil) 0.1 mg/kg per day, seven days
Measured Metric: concentration at 7 days (ng/g)
Return type: number; implicit unit ng/g.

Requested field: concentration at 7 days. Item: C[C@@H](OC1OCCN(Cc2nc(=O)[nH][nH]2)C1c1ccc(F)cc1)c1cc(C(F)(F)F)cc(C(F)(F)F)c1 (stereo in doubt) [Aprepitant]
2800

These data points were gathered from patent US20170290774A1.
